B1: TPR t1 (parent)
chain: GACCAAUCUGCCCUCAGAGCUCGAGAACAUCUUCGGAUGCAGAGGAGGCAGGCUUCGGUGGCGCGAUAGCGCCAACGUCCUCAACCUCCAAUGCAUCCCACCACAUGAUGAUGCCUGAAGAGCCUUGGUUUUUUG

variants of: B1; assay: polymerase ribozyme fitness, log enrichment relative to wild type (log ratio); higher = more active; in vitro selection for triplet polymerase activity
Assign class by polymerase ribozyme fitness (log ratio): not lower than -2 means rule met; lower than -2 means rule not met.

GACCAAUCUGCCCUCAGAGCUCGAGAACAUCUUCGGAUGCAGAGGAGGCAGGCUUCGGUGGCGCGAUAGCGCAAACGUCCUCAACCUCCAAUGCAUCCCACCAUAUGAUGAUGCCUGAAGAGCCUUGGUGUCUUG : rule met

Exam item: Is reported polymerase ribozyme fitness (log ratio) greater than or equal to -2 here: `GACCAAUCUGCCCUCAGAGCUCGAGAACAUCUUCGGAUGCAGAGGAGGCAGGCUUCGGUGGCGCGAUAGCGCCAACGUCCUCAACCUCGAAUGCAUCCCACCACAUGAUGAUACCUGAAGAGCCUUGGUUUUUUG`
Marked response: rule not met

Exam item: Is reported polymerase ribozyme fitness (log ratio) greater than or equal to -2 here: `GACCAAUCUGCCCUCAGAGCUCGAGAACAUUUUCGGAUGCAGAGGAGGCAGGCAUCGGUGGCGCGAUAGCGCCAACGUCCUCAACCUCCAAUGCAUCCCACCACAUGAUGAUGCCUGAAGAGCCUUGGUUUUUUG`
Marked response: rule not met

From: the RNAGym collection of RNA variant scans (doi:10.1073/pnas.2313332121)
